// reported difference in habituation to acoustic stimuli per item
- System: Danio rerio larvae (5 dpf)
- ASSAY_DETAILS: difference in habituation to acoustic stimuli vs DMSO (percentage points); higher = more habituation than DMSO
- CONDITION_NOTES: 10 µM; exposure time 6 h
Where a name gives a salt, the structure may show the parent alone.
Reply briefly: the number, and no unit.

Below: 5 compounds and their reported difference in habituation to acoustic stimuli.
[
  {
    "COMPOUND": "CS(=O)(=O)c1cccc(C[C@H](NC(=O)c2c(Cl)cc3c(c2Cl)CCN(C(=O)c2ccc4ccoc4c2)C3)C(=O)O)c1",
    "EXPERIMENTAL_RESULT": 0.0295
  },
  {
    "COMPOUND": "Cc1ncc(CO)c(CO)c1O",
    "EXPERIMENTAL_RESULT": 4.31
  },
  {
    "COMPOUND": "N=C(NCCCCCCNC(=N)NC(=N)Nc1ccc(Cl)cc1)NC(=N)Nc1ccc(Cl)cc1 [Chlorhexidine (hydrochloride)]",
    "EXPERIMENTAL_RESULT": -10.2
  },
  {
    "COMPOUND": "CC(=O)Oc1ccccc1C(=O)O",
    "EXPERIMENTAL_RESULT": 1.42
  },
  {
    "COMPOUND": "Cc1[nH]c2ccccc2c1CCNCc1ccc(/C=C/C(=O)NO)cc1",
    "EXPERIMENTAL_RESULT": 3.43
  }
]

Request: What does the record list as difference in habituation to acoustic stimuli for CCCCNc1ccc(C(=O)OCCOCCOCCOCCOCCOCCOCCOCCOCCOC)cc1 [Benzonatate] ?
Response: 6.2

Request: And then O=C(O)COCCN1CCN(C(c2ccccc2)c2ccc(Cl)cc2)CC1 (stereo not given) [Cetirizine (hydrochloride)] , what is it?
Response: -2.99

Request: Can you handle CCCCCCCCCCCCCCCC(=O)OC/C=C(C)/C=C/C=C(C)/C=C/C1=C(C)CCCC1(C)C [Retinyl Palmitate] next?
Response: 2.4

Request: Similarly, CN(C)CCCC1(c2ccc(F)cc2)OCc2cc(C#N)ccc21 (stereo not given) [Citalopram (hydrobromide)] ?
Response: -3.86

Request: Thanks! And "CC(C)OC(=O)CCC/C=C\C[C@@H]1[C@@H](/C=C/[C@@H](O)COc2cccc(C(F)(F)F)c2)[C@H](O)C[C@@H]1O" ?
Response: 8.61

---

- Test system: Danio rerio larvae (5 dpf)
- ASSAY_DETAILS: difference in combined optomotor response to red, green and blue moving lines vs DMSO (percentage points); higher = stronger optomotor response than DMSO
- CONDITION_NOTES: 10 µM; exposure time 6 h
Counter-ions that a name gives are not always drawn.
MEASUREMENT_LABEL: difference

[
  {
    "COMPOUND": "CCOC(=O)[C@@](C)(N)Cc1ccc(O)c(O)c1 [Methyldopate]",
    "difference": -2.04
  },
  {
    "COMPOUND": "Cc1cc(/C=C/C#N)cc(C)c1Nc1ccnc(Nc2ccc(C#N)cc2)n1 [Rilpivirine]",
    "difference": -12.5
  },
  {
    "COMPOUND": "Cc1ccc(=O)n(-c2ccccc2)c1 [Pirfenidone]",
    "difference": 8.23
  },
  {
    "COMPOUND": "CN(C)CCc1c[nH]c2ccc(Cn3cncn3)cc12 [Rizatriptan (benzoate salt)]",
    "difference": 7.91
  },
  {
    "COMPOUND": "N=C(N)NC(=O)c1nc(Cl)c(N)nc1N [Amiloride (hydrochloride) (hydrate)]",
    "difference": 2.45
  },
  {
    "COMPOUND": "CC(=O)N[C@@H](CS)C(=O)O [N-acetyl-L-Cysteine]",
    "difference": -0.176
  },
  {
    "COMPOUND": "C=CC1=C(C(=O)O)N2C(=O)[C@@H](NC(=O)/C(=N\\O)c3csc(N)n3)[C@H]2SC1 [Cefdinir]",
    "difference": 4.15
  },
  {
    "COMPOUND": "NCCCCCC(=O)O [6-Aminocaproic Acid]",
    "difference": 3.43
  }
]

Request: Record CCN(CCO)CCCC(C)Nc1ccnc2cc(Cl)ccc12 (centres undefined) [Hydroxychloroquine (sulfate)] : what is its difference with Danio rerio larvae (5 dpf)?
Response: -3.68

---

- Test system: Danio rerio larvae (5 dpf)
- ASSAY_DETAILS: difference in combined optomotor response to red, green and blue moving lines vs DMSO (percentage points); higher = stronger optomotor response than DMSO
- CONDITION_NOTES: 10 µM; exposure time 6 h
Tick Fulfilled if difference is -1 or greater. Tick Not fulfilled if difference is less than -1.

[
  {
    "MOLECULE": "OC[C@H]1O[C@@H](O[C@@H]2[C@@H](CO)OC(O)(CO)[C@H]2O)[C@H](O)[C@@H](O)[C@H]1O (mixture of isomers)",
    "ASSIGNED_CLASS": "Not fulfilled"
  }
]

Request: In plain terms: is recorded difference at least -1 for "CCOc1cc([C@@H](CS(C)(=O)=O)N2C(=O)c3cccc(NC(C)=O)c3C2=O)ccc1OC" ?
Response: Not fulfilled

Request: One more molecule: "C[C@@H]1CCO[C@H]2Cn3cc(C(=O)NCc4ccc(F)cc4F)c(=O)c(O)c3C(=O)N12"
Response: Fulfilled

Request: Thanks! And CC(=O)O[C@]1(C(C)=O)CC[C@H]2[C@@H]3C=C(C)C4=CC(=O)CC[C@]4(C)[C@H]3CC[C@@]21C [Megestryl Acetate] ?
Response: Not fulfilled

Request: Do the same for CN1CCN(C2=Nc3ccccc3Oc3ccc(Cl)cc32)CC1 [Loxapine (succinate)] please
Response: Fulfilled

Request: Try "CO[C@H]1C[C@@H]2CC[C@@H](C)[C@@](O)(O2)C(=O)C(=O)N2CCCC[C@H]2C(=O)O[C@H]([C@H](C)C[C@@H]2CC[C@@H](O)[C@H](OC)C2)CC(=O)[C@H](C)/C=C(\C)[C@@H](O)[C@@H](OC)C(=O)[C@H](C)C[C@H](C)/C=C/C=C/C=C/1C" next.
Response: Fulfilled

---

- Test system: Danio rerio larvae (5 dpf)
- ASSAY_DETAILS: difference in startle response vs DMSO (percentage points); higher = stronger startle than DMSO
- CONDITION_NOTES: 10 µM; exposure time 6 h
Where a name gives a salt, the structure may show the parent alone.
difference in startle response reference
Quick one: just the number, no unit, thanks!

Study these solved cases before continuing.
[
  {
    "COMPOUND": "C=C1[C@H](CO)[C@@H](O)C[C@@H]1n1cnc2c(=O)[nH]c(N)nc21 [Entecavir (hydrate)]",
    "difference in startle response": 2.04
  },
  {
    "COMPOUND": "CN(C)CCC(c1ccc(Cl)cc1)c1ccccn1 (centres undefined) [Chlorpheniramine (maleate)]",
    "difference in startle response": -4.13
  },
  {
    "COMPOUND": "OCCOCCN1CCN(C2=Nc3ccccc3Sc3ccccc32)CC1 [Quetiapine (hemifumarate)]",
    "difference in startle response": -3.79
  }
]

Kindly consider the entry below.
Request: What value of difference in startle response has been reported for the following compound? CNCCC(Oc1ccc(C(F)(F)F)cc1)c1ccccc1 (centres undefined) [Fluoxetine (hydrochloride)]
Response: -8.12

---

- System: Danio rerio larvae (5 dpf)
- ASSAY_DETAILS: difference in excitability vs DMSO (percentage points); higher = more excitable than DMSO
- CONDITION_NOTES: 10 µM; exposure time 6 h
Structures can show the parent of a compound that is named as a salt.
Some compounds, each annotated with its measured difference in excitability.
Number only, please.

Sample records with difference in excitability:
[
  {
    "COMPOUND": "Nc1c(CC(=O)O)cccc1C(=O)c1ccc(Br)cc1 [Bromfenac (sodium salt)]",
    "TARGET_UNDER_TEST": "Danio rerio larvae (5 dpf)",
    "difference in excitability": 22
  },
  {
    "COMPOUND": "Cc1c(O)cccc1C(=O)N[C@@H](CSc1ccccc1)[C@H](O)CN1C[C@H]2CCCC[C@H]2C[C@H]1C(=O)NC(C)(C)C [Nelfinavir (mesylate)]",
    "TARGET_UNDER_TEST": "Danio rerio larvae (5 dpf)",
    "difference in excitability": 17.7
  },
  {
    "COMPOUND": "CCOC(=O)[C@@](C)(N)Cc1ccc(O)c(O)c1 [Methyldopate]",
    "TARGET_UNDER_TEST": "Danio rerio larvae (5 dpf)",
    "difference in excitability": 14.5
  }
]

Request: Value lookup for difference in excitability; key = CCCN[C@H]1CCc2nc(N)sc2C1 [(S)-Pramipexole (hydrochloride)]
Response: 6.47

Request: Proceed to CN(C)CCCC1(c2ccc(F)cc2)OCc2cc(C#N)ccc21 (stereo not drawn) [Citalopram (hydrobromide)]
Response: 8.67

Request: What would you report for CN(CCOc1ccc(CC2SC(=O)NC2=O)cc1)c1ccccn1 (stereo not drawn) [Rosiglitazone] ?
Response: 6.79

Request: For CC(C)NCC(O)c1cc(O)cc(O)c1 (stereo not drawn) [Metaproterenol (hemisulfate)] then?
Response: 3.08

Request: Note, next up: Cc1ccc(O)c([C@H](CCN(C(C)C)C(C)C)c2ccccc2)c1 [Tolterodine (tartrate)]
Response: 11.1

The values you see were collected from the supplement of paper PMC10515830.
